What change in vivo at 80 µmol/kg was measured for each of the following?
test: saluretic efficiency test in rats: elimination of water, sodium, chloride and potassium in 6 h urine after oral dosing; format: in vivo; conditions: Rattus norvegicus; rats, oral, 80 μmol/kg body wt.; deviation from control mean plus twice the standard deviation; 6 h urine; read-out: Mean percentage variation in the elimination of Chloride
Give bare numbers, in %.

1. COc1cc(C)c(C(O)(c2ccccc2)C(C)N2CCCCC2)cc1C(C)C (centres unmarked) :: 14.2

List reported change in vivo at 80 µmol/kg for each of these compounds:
1. COc1c(C)cc(C(C)(C)C)cc1C(O)(c1ccccc1)C(C)N1CCCCC1 (centres unmarked)
2. Nc1nc(N)c2nc(-c3ccccc3)c(N)nc2n1 [2.4.7-triamino-6-phenyl-pteridine, reference compound]
3. COc1c(C)cc(C(O)(c2cc(Cl)cc(C)c2OC)C(C)N(C)C(C)(C)C)cc1C (centres unmarked)

Outgoing:
[36, -11.7, 41.5]

List reported change in vivo at 80 µmol/kg for each of these compounds:
1. COc1c(C)c(C)c(C(O)(c2ccccc2)C(C)N2CCCCC2)c(C)c1C (centres unmarked)
2. COc1c(C(C)C)cc(Cl)c(C)c1C(O)(c1ccccc1)C(C)N1CCCC1 (centres unmarked)
3. COc1ccc(C)cc1C(O)(c1cc(C(C)C)c(OCc2ccccc2)c(C(C)C)c1)C(C)N1CCCCC1 (centres unmarked)
4. C=CCc1cc2c(cc1C(O)(c1ccc(OC)cc1)C(C)N1CCCCC1)OCO2 (centres unmarked)

Outgoing:
5.6
21.2
20
-20.4

###

Test: saluretic efficiency test in rats: elimination of water, sodium, chloride and potassium in 6 h urine after oral dosing
Format: in vivo
Details: Rattus norvegicus; rats, oral, 80 μmol/kg body wt.; deviation from control mean plus twice the standard deviation; 6 h urine; read-out: Mean percentage variation in the elimination of Chloride
Procedure: In order to test the saluretic efficiency of the compounds of the invention rats having a weight of 150 to 200 g were used. The animals were kept without food, but not without drinking water, for 15 hours before the beginning of the test. […] From the analysis results the quantities of Na^+, K^+ and Cl^- eliminated were calculated in […] body weight, and the values thus obtained compared with those of the control animals. […]
measure: change in vivo at 80 µmol/kg (%)
Numbers only, in %.

Known results for compounds:
1. CCOc1c(C(C)C)cc(C(O)(c2ccc(OC)cc2)C(C)N2CCCCC2)cc1C(C)C (centres unmarked) [T 2310] :: 36.3
2. COc1ccc(C(O)(c2cc(C(C)(C)C)cc(C)c2OC)C(C)N2CCCCC2)c(OC)c1 (centres unmarked) [T 2455] :: 34.8
3. COc1ccc(C(O)(c2cc(C(C)C)c(OC)c(C(C)C)c2)C(C)N2CCCCC2)cc1OC (centres unmarked) [T 1882] :: -4.4
4. CCOc1ccc(C(O)(c2cc(C(C)C)c(OCC)c(C(C)C)c2)C(C)N2CCCCC2)cc1 (centres unmarked) [T 2453] :: 31.2
5. COc1ccc(C(O)(c2cc(C(C)C)c(OC)c(C(C)C)c2)C(C)N2CCCCC2)cc1 (centres unmarked) [T 2237] :: 57.1
6. CCCC(C)(C)c1cc(C)c(OC)c(C(O)(c2ccccc2)C(C)N2CCCC2)c1 (centres unmarked) [T 2111] :: 23.4
7. CCOc1ccc(C(O)(c2cc(C(C)C)c(OC)c(C(C)C)c2)C(C)N2CCCCC2)cc1 (centres unmarked) [T 2258] :: 17.3

// next item, change in vivo at 80 µmol/kg requested
Incoming: Recorded change in vivo at 80 µmol/kg of COc1cc(C)c(C(O)(c2ccccc2)C(C)N2CCCC2)cc1C(C)(C)C (centres unmarked) [T 1856] , please.
Outgoing: 32.5
